- Tested on: HIV-1 (NL4-3 strain)
- assay.name: Assay for inhibition of HIV replication (MT4-gag-GFP reporter cell line, kinetic assay)
- Type: cell-based
- measurement.conditions: Human immunodeficiency virus 1, NL43, infected MT4-GFP cells in RPMI + 0% normal human serum; IP from 4-parameter dose response curve; read-out: WILD TYPE CELL ASSAY Viking IP (0% NHS)
property.measured: pIC50
Answers are plain numbers, as −log10 of the molar value.

>>> assay_result("COC1Cn2cc(C(=O)NCc3ccc(F)cc3F)c(=O)c(O)c2C(=O)C1(C)CCOCCCP(=O)(O)O (stereo not drawn)")
6.20
>>> assay_result("CC1(C)C(=O)c2c(O)c(=O)c(C(=O)NCc3ccc(F)cc3F)cn2CC1OCCP(=O)(O)O (stereo not drawn)")
6.17
>>> assay_result("CC1(C)C(=O)c2c(O)c(=O)c(C(=O)NCc3ccc(F)cc3F)cn2CC1OCCCP(=O)(O)O (stereo not drawn)")
6.08

Provide each entry's pIC50 from the list below.
1. CCOP(=O)(CCNC1Cn2cc(C(=O)NCc3ccc(F)cc3F)c(=O)c(O)c2C(=O)C1(C)C)OCC (stereo not drawn)
2. CC1(C)C(=O)c2c(O)c(=O)c(C(=O)NCc3ccc(F)cc3F)cn2CC1NCCCP(=O)(O)O (stereo not drawn)

Solution:
[7.30, 7.02]
